Reference source for all entries: ChEMBL document CHEMBL3616457

# assay_text: Antioxidant activity assessed as H2O2 scavenging activity
# Type: physicochemical
test_readout: IC50 (mg/L)
Number in mg/L, nothing else.

Reported IC50, compound `COc1cc(/C=C/C(=O)/C=C(O)/C=C/c2ccc(OCC(=O)NC3CCCCC3)c(OC)c2)ccc1OCC(=O)NC1CCCCC1` : ____
26.14

* * *

Examples of compounds with documented IC50 follow.
# assay_text: Antioxidant activity assessed as DPPH radical scavenging activity
# Type: physicochemical
Number in µg/mL, nothing else.

Sample answers from the record:
1) COc1cc(/C=C/C(=O)/C=C(O)/C=C/c2ccc(OCC(=O)N(C)c3ccccc3)c(OC)c2)ccc1OCC(=O)N(C)c1ccccc1 | 12.05
2) COc1cc(/C=C/C(=O)/C=C(O)/C=C/c2ccc(OCC(=O)Nc3ccc(F)cc3)c(OC)c2)ccc1OCC(=O)Nc1ccc(F)cc1 | 24.26
3) COc1cc(/C=C/C(=O)/C=C(O)/C=C/c2ccc(OCC(=O)Nc3ccc(Cl)cc3)c(OC)c2)ccc1OCC(=O)Nc1ccc(Cl)cc1 | 12.92
4) COc1cc(/C=C/C(=O)/C=C(O)/C=C/c2ccc(OCC(=O)Nc3ccccc3)c(OC)c2)ccc1OCC(=O)Nc1ccccc1 | 23.77
5) COc1cc(/C=C/C(=O)CC(=O)/C=C/c2ccc(O)c(OC)c2)ccc1O [CURCUMIN] | 14.83

We next turn to a different compound, shown below.
Reported IC50, compound `COc1cc(/C=C/C(=O)/C=C(O)/C=C/c2ccc(OCC(=O)Nc3ccc(C)cc3)c(OC)c2)ccc1OCC(=O)Nc1ccc(C)cc1` : ____
22.85

* * *

Examples of compounds with documented IC50 follow.
# assay_text: Antioxidant activity assessed as DPPH radical scavenging activity
# Type: physicochemical
Answer shape: numeric part, then the unit.

Sample answers from the record:
1) COc1cc(/C=C/C(=O)/C=C(O)/C=C/c2ccc(OCC(=O)NC3CCCCC3)c(OC)c2)ccc1OCC(=O)NC1CCCCC1 | 16 µg/mL
2) COc1cc(/C=C/C(=O)/C=C(O)/C=C/c2ccc(OCC(=O)Nc3cccc4ccccc34)c(OC)c2)ccc1OCC(=O)Nc1cccc2ccccc12 | 12.65 µg/mL
3) CCN(CC)C(=O)COc1ccc(/C=C/C(=O)/C=C(O)/C=C/c2ccc(OCC(=O)N(CC)CC)c(OC)c2)cc1OC | 19.68 µg/mL

We next turn to a different compound, shown below.
Reported IC50, compound `O=C1O[C@H]([C@@H](O)CO)C(O)=C1O` : ____
32.74 µg/mL

* * *

# assay_text: Antioxidant activity assessed as H2O2 scavenging activity
# Format: physicochemical
Examples of compounds with documented IC50 follow.
Number in µg/mL, nothing else.

1. O=C1O[C@H]([C@@H](O)CO)C(O)=C1O [ASCORBIC ACID] | 67.54
2. CCN(CC)C(=O)COc1ccc(/C=C/C(=O)/C=C(O)/C=C/c2ccc(OCC(=O)N(CC)CC)c(OC)c2)cc1OC | 68.16
3. COc1cc(/C=C/C(=O)CC(=O)/C=C/c2ccc(O)c(OC)c2)ccc1O [CURCUMIN] | 34.71
4. COc1cc(/C=C/C(=O)/C=C(O)/C=C/c2ccc(OCC(=O)Nc3cccc4ccccc34)c(OC)c2)ccc1OCC(=O)Nc1cccc2ccccc12 | 41.4
5. COc1cc(/C=C/C(=O)/C=C(O)/C=C/c2ccc(OCC(=O)Nc3ccc(F)cc3)c(OC)c2)ccc1OCC(=O)Nc1ccc(F)cc1 | 70.51

We next turn to a different compound, shown below.
Reported IC50, compound `COc1cc(/C=C/C(=O)/C=C(O)/C=C/c2ccc(OCC(=O)Nc3ccc(C)cc3)c(OC)c2)ccc1OCC(=O)Nc1ccc(C)cc1` : ____
61.98
